- Tested target: Serine-protein kinase ATM (Homo sapiens, UniProt Q13315)
- Sequence (Q13315 whole entry): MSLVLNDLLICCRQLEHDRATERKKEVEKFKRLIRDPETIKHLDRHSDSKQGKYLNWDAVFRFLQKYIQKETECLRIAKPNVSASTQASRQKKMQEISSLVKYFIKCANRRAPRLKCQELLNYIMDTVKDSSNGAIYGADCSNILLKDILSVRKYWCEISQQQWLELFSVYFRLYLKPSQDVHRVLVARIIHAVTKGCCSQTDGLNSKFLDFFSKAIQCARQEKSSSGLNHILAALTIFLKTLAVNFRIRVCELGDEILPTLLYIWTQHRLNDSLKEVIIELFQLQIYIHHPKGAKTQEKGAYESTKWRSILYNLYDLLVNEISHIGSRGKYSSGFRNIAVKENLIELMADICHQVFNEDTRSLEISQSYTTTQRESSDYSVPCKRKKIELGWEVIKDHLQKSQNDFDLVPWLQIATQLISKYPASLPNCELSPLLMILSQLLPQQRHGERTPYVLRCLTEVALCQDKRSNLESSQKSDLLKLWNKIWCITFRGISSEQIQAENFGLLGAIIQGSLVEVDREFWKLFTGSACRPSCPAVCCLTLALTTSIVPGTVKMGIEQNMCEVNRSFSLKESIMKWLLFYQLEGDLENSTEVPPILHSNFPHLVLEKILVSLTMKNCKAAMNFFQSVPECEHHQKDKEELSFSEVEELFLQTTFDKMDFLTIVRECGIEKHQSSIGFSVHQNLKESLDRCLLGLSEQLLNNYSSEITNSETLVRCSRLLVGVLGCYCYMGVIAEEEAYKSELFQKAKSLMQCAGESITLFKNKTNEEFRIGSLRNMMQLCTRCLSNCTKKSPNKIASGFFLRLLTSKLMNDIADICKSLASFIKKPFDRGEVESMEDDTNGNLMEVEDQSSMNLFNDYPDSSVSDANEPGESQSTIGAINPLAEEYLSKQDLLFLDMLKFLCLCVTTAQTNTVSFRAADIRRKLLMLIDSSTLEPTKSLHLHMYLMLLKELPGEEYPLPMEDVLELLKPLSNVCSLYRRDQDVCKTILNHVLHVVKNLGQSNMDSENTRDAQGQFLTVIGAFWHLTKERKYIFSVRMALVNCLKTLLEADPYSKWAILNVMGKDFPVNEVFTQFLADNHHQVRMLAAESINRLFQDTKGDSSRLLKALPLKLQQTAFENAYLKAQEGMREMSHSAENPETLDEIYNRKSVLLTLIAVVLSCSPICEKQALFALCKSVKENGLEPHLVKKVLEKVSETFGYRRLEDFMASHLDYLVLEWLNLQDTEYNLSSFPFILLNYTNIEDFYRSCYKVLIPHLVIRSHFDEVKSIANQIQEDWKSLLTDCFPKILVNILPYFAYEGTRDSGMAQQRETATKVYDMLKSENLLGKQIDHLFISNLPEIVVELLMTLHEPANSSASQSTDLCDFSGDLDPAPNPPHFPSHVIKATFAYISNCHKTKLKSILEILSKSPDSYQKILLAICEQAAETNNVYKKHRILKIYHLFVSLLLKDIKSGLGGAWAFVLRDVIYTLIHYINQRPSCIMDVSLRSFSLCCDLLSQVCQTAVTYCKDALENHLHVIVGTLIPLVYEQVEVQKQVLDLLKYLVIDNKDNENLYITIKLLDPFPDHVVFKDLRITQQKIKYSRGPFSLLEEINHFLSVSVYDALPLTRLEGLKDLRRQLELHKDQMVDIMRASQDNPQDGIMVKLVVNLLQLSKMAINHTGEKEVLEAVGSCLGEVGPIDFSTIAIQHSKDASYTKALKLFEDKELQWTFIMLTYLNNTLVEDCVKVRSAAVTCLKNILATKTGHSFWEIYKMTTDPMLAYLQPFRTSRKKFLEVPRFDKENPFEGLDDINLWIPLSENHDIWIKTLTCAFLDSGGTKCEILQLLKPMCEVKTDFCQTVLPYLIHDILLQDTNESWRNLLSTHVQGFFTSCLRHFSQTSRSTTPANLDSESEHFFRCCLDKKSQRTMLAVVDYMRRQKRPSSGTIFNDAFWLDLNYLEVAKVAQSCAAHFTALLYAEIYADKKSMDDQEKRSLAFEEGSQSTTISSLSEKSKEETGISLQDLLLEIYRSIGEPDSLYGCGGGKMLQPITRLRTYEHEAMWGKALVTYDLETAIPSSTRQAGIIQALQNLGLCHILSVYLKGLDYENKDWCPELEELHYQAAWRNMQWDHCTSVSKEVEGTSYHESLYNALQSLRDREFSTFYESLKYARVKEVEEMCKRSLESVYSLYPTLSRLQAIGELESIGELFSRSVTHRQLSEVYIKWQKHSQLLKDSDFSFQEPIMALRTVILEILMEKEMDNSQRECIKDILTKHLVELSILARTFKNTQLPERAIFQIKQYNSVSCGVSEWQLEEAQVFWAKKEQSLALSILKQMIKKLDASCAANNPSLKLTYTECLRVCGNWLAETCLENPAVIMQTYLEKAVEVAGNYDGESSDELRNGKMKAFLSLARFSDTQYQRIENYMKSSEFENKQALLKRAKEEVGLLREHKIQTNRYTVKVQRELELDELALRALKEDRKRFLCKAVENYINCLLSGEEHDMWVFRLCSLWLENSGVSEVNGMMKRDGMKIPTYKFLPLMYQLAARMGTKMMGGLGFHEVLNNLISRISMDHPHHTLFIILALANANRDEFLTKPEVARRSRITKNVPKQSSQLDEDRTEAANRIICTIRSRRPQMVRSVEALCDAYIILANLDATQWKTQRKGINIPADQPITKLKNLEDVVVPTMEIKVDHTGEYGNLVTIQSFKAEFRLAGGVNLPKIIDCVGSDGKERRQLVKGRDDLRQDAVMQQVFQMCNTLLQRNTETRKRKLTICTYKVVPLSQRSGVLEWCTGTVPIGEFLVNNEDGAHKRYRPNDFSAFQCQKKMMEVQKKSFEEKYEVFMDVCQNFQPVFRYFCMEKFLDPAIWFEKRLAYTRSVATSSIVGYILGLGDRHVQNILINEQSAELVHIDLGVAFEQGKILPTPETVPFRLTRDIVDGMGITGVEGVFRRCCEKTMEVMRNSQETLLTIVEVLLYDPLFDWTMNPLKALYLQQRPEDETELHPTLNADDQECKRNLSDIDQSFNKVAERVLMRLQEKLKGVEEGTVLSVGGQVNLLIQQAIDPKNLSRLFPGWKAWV
- Method: Inhibition of ATM phosphorylation at Ser-1981 residue in human HT-29 cells incubated for 1 hr followed by X-ray irradiation by Hoechst staining based fluorescence plate reader analysis
- Format: cell-based
pIC50: −log10 of the molar value.
Recorded endpoint: pIC50

{"Smiles text": "CCC(CC)CNc1c(C(N)=O)cnc2ccc(-c3ccnnc3)cc12", "pIC50": 6.04}

1 = CCC(CC)CNc1c(C(N)=O)cnc2ccc(-c3ccc(CS(C)(=O)=O)cc3)cc12
2 = CCC(CC)CNc1c(C(N)=O)cnc2ccc(-c3cnn(C)c3)cc12
Q: Which entry shows the lesser value of pIC50 here, 1 or 2 ? Write the label of whichever entry you select.
Ans: 2
(2: 6.28, 1: 7.15)

I = C[C@@H](Nc1c(C(N)=O)cnc2ccc(-c3cccnc3)cc12)c1ccn(C)n1
II = CCC(CC)CNc1c(C(N)=O)cnc2ccc(-c3ccc(CS(C)(=O)=O)nc3)cc12
Q: Which entry shows the lesser value of pIC50 here, I or II ? Write the label of whichever entry you select.
Ans: I
(I: 5.95, II: 7.41)

1 = NC(=O)c1cnc2ccc(-c3cccnc3)cc2c1NC1CCOCC1
2 = C[C@@H](Nc1c(C(N)=O)cnc2ccc(-c3cccnc3)cc12)c1ccc(Cl)cc1
Q: Which item exceeds the other in pIC50, 1 or 2 ? Write the label of whichever entry you select.
Ans: 2

a = NC(=O)c1cnc2cc(Cl)c(-c3cccnc3)cc2c1NC1CCOCC1
b = CCC(CC)CNc1c(C(N)=O)cnc2ccc(-c3cccnc3)cc12
Q: Which entry shows the lesser value of pIC50 here, a or b ? Write the label of whichever entry you select.
Ans: a
(a: 5.49, b: 7.14)

I = COCc1ccc(-c2cc3c(N[C@@H](C)C4CCOCC4)c(C(N)=O)cnc3cc2F)cn1
II = CCC(CC)CNc1c(C(N)=O)cnc2ccc(-c3ccc(COC)cc3)cc12
Q: Which item exceeds the other in pIC50, I or II ? Write the label of whichever entry you select.
Ans: I
(I: 7.28, II: 6.43)
